Origin of measurements: patent US9409952B2

// reported microsomal CLint at 1 uM for each item listed
test method notes: Metabolic stability in human hepatic microsome
Format: in vitro ADME
condition info: microsomes, pH 7.4; human hepatic microsome, NADPH(+); read-out: CL NADPH(+)
Positions of bridges follow the written chain, without caps; N, C: chain ends. Non-standard residues stand in square brackets, D forms with d. Residues, ends and D or L forms follow the SMILES beside them. *: point of attachment. NMeF = CN[C@@H](Cc1ccccc1)C(=O)O; hPhe = N[C@@H](CCc1ccccc1)C(=O)O; NMeL = CN[C@@H](CC(C)C)C(=O)O; NMeV = CN[C@H](C(=O)O)C(C)C; NMeA = CN[C@@H](C)C(=O)O; Piperidide = C1CCN(*)CC1; dNMeA = CN[C@H](C)C(=O)O; Sar = CNCC(=O)O
Write the answer as a number in µL/min/mg, unit excluded.

Record excerpt, results attached:
CC(C)C[C@@H]1NC(=O)[C@H](Cc2c[nH]cn2)NC(=O)[C@H](Cc2ccccc2)N(C)C(=O)[C@H](CC(C)C)NC(=O)[C@H](CC(C)C)N(C)C(=O)[C@H](Cc2ccccc2)NC(=O)[C@H](CC(C)C)N(C)C(=O)[C@H](CC(C)C)N(C)C(=O)[C@H](Cc2ccccc2)NC(=O)CN(C)C(=O)C[C@@H](C(=O)N(C)[C@@H](Cc2ccccc2)C(=O)N[C@@H](C)C(=O)N2CCCCC2)NC1=O [DP-592] ([Sar]F[NMeL][NMeL]F[NMeL]L[NMeF]HLD[NMeF]A-Piperidide; lactam N-11); 5
CC[C@H](C)[C@@H]1NC(=O)[C@@H](C)N(C)C(=O)C[C@@H](C(=O)N(C)[C@@H](Cc2ccccc2)C(=O)N[C@@H](C)C(=O)N2CCCCC2)NC(=O)[C@H](Cc2ccccc2)N(C)C(=O)CN(C)C(=O)[C@H]([C@@H](C)O)NC(=O)[C@H](C)N(C)C(=O)[C@H](C(C)C)N(C)C(=O)[C@H](Cc2ccccc2)NC(=O)[C@H](CC(C)C)N(C)C(=O)[C@H](CC(C)C)N(C)C1=O [DP-183] ([dNMeA]I[NMeL][NMeL]F[NMeV][NMeA]T[Sar][NMeF]D[NMeF]A-Piperidide; lactam N-11); 25
CC(C)C[C@@H]1NC(=O)[C@H](C(C)C)N(C)C(=O)[C@H](CCc2ccccc2)NC(=O)CN(C)C(=O)[C@H]([C@@H](C)O)NC(=O)[C@H](C)N(C)C(=O)[C@H](CC(C)C)N(C)C(=O)[C@@H](C(C)C)NC(=O)C[C@@H](C(=O)N2CCCCC2)NC(=O)[C@H](C)NC(=O)[C@H](CC(C)C)N(C)C1=O [DP-736] ([dV][NMeL][NMeA]T[Sar][hPhe][NMeV]L[NMeL]AD-Piperidide; lactam N-11); 47
CC[C@H](C)[C@@H]1NC(=O)[C@H](CC(C)C)NC(=O)[C@H](C)N(C)C(=O)C[C@@H](C(=O)N2CCCCC2)NC(=O)[C@H](CC(C)C)NC(=O)[C@H](Cc2ccccc2)NC(=O)[C@H](Cc2ccccc2)N(C)C(=O)[C@H](CC(C)C)NC(=O)[C@H]([C@@H](C)O)NC(=O)[C@H](Cc2ccccc2)NC1=O [DP-331] ([NMeA]LIFTL[NMeF]FLD-Piperidide; lactam N-10); 198

Now let's try a different one.
# query: microsomal CLint at 1 uM of entry CC(C)C[C@H]1C(=O)N(C)[C@@H](C)C(=O)N[C@@H]([C@@H](C)O)C(=O)N(C)[C@@H](C)C(=O)N(C)[C@@H](CC(C)C)C(=O)N(C)[C@@H](Cc2ccccc2)C(=O)N[C@H](C(=O)N2CCCCC2)CC(=O)N(C)[C@H](C)C(=O)N(C)[C@@H](C)C(=O)N[C@@H](C)C(=O)N(C)[C@@H](C)C(=O)N1C [DP-476] ([dNMeA][NMeA]A[NMeA][NMeL][NMeA]T[NMeA][NMeL][NMeF]D-Piperidide; lactam N-11)
10

---

test method notes: PAMPA (parallel artificial membrane permeability assay)
Format: in vitro ADME
condition info: PAMPA; membrane permeation rate (Pe); 50 mM MOPSO buffer pH 6.5 with 5.0% glycocholic acid, 37° C., 18 hours; read-out: iPAMPA Pe
Starred links: 1 amine or outer side, 2 acyl side, 3 side chain; linkers in the order of their positions; H or OH if unused. Positions of bridges follow the written chain, without caps; N, C: chain ends. Non-standard residues stand in square brackets, D forms with d. Residues, ends and D or L forms follow the SMILES beside them. *: point of attachment. Phe(3-(CH2)4CO) = O=C([C@H](Cc1cccc(CCCCC(=O)[*:3])c1)N[*:1])[*:2]; NMeF = CN[C@@H](Cc1ccccc1)C(=O)O; NMeL = CN[C@@H](CC(C)C)C(=O)O; NMeA = CN[C@@H](C)C(=O)O; Piperidide = C1CCN(*)CC1; tBu = CC(C)(C)*
quantity: Papp at 18 hours, 50 µM

Record excerpt, results attached:
CC(C)C[C@@H]1NC(=O)[C@H]([C@@H](C)O)NC(=O)[C@H](CC(C)C)N(C)C(=O)[C@H](Cc2ccccc2)N(C)C(=O)[C@H](C)N(C)C(=O)C[C@@H](C(=O)N2CCCCC2)NC(=O)[C@H](COC(C)(C)C)NC(=O)[C@H](CC(C)C)N(C)C1=O [DP-696] ([NMeA][NMeF][NMeL]TL[NMeL]S(tBu)D-Piperidide; lactam N-8); 37 ×10⁻⁶ cm/s
CC[C@H](C)[C@@H]1NC(=O)[C@H](Cc2ccccc2)NC(=O)CCCCc2cccc(c2)C[C@@H](C(=O)N2CCCCC2)NC(=O)[C@H](CC(C)C)NC(=O)[C@H](CC(C)C)NC(=O)[C@H](C(C)C)NC(=O)[C@H](C)N(C)C(=O)[C@H](Cc2ccccc2)NC(=O)CNC(=O)[C@H]([C@@H](C)O)NC(=O)[C@H](CC(C)C)NC(=O)[C@@H]2CCCN2C1=O [DP-903] (FIPLTGF[NMeA]VLL[Phe(3-(CH2)4CO)]-Piperidide; lactam N-12); 0.34 ×10⁻⁶ cm/s

Now let's try a different one.
# query: Papp at 18 hours, 50 µM of entry CC(C)C[C@H]1C(=O)N[C@H](C(=O)N2CCCCC2)CC(=O)N(C)[C@@H](C)C(=O)N(C)[C@@H](Cc2ccccc2)C(=O)N(C)[C@@H](CC(C)C)C(=O)N[C@@H]([C@@H](C)O)C(=O)N(C)[C@@H](C)C(=O)N1C [DP-678] ([NMeA][NMeF][NMeL]T[NMeA][NMeL]D-Piperidide; lactam N-7)
26 ×10⁻⁶ cm/s

---

test method notes: Metabolic stability in human hepatic microsome
Type: in vitro ADME
condition info: microsomes, pH 7.4; human hepatic microsome, NADPH(+); read-out: CL NADPH(+)
Positions of bridges follow the written chain, without caps; N, C: chain ends. Non-standard residues stand in square brackets, D forms with d. Residues, ends and D or L forms follow the SMILES beside them. *: point of attachment. NMeF = CN[C@@H](Cc1ccccc1)C(=O)O; NMeL = CN[C@@H](CC(C)C)C(=O)O; NMeA = CN[C@@H](C)C(=O)O; Piperidide = C1CCN(*)CC1
quantity: microsomal CLint at 1 uM
Please format your answer as a value with the unit trailing.

# query: microsomal CLint at 1 uM of entry CC(C)C[C@H]1C(=O)N[C@H](C(=O)N(C)[C@@H](Cc2ccccc2)C(=O)N(C)[C@@H](Cc2ccccc2)C(=O)N[C@@H](C)C(=O)N2CCCCC2)CC(=O)N[C@@H](C)C(=O)N(C)[C@@H](Cc2ccccc2)C(=O)N(C)[C@@H](C)C(=O)N(C)[C@@H](CC(C)C)C(=O)N[C@@H]([C@@H](C)O)C(=O)N(C)[C@@H](C)C(=O)N(C)[C@@H](CC(C)C)C(=O)N[C@@H](C(C)C)C(=O)N1C [DP-203] (A[NMeF][NMeA][NMeL]T[NMeA][NMeL]V[NMeL]D[NMeF][NMeF]A-Piperidide; lactam N-10)
18 µL/min/mg

---

test method notes: Metabolic stability in human hepatic microsome
Format: in vitro ADME
condition info: human, microsomes, pH 7.4, CL NADPH(+)
Positions of bridges follow the written chain, without caps; N, C: chain ends. Non-standard residues stand in square brackets, D forms with d. Residues, ends and D or L forms follow the SMILES beside them. *: point of attachment. NMeF = CN[C@@H](Cc1ccccc1)C(=O)O; NMeI = CC[C@H](C)[C@H](NC)C(=O)O; NMeL = CN[C@@H](CC(C)C)C(=O)O; NMeV = CN[C@H](C(=O)O)C(C)C; NMeA = CN[C@@H](C)C(=O)O; Piperidide = C1CCN(*)CC1; Sar = CNCC(=O)O
// reported microsomal CLint at 1 uM for each item listed
Write the answer as a number in µL/min/mg, unit excluded.

CC[C@H](C)[C@H]1C(=O)N(C)[C@@H](C)C(=O)N[C@H](C(=O)N2CCCCC2)CC(=O)N[C@@H](C)C(=O)N[C@@H]([C@@H](C)O)C(=O)N(C)[C@@H](Cc2ccccc2)C(=O)N(C)[C@@H](CC(C)C)C(=O)N[C@@H](C(C)C)C(=O)N2CCC[C@H]2C(=O)N(C)[C@@H](Cc2ccccc2)C(=O)N[C@@H](CC(C)C)C(=O)N(C)CC(=O)N1C [DP-11] (AT[NMeF][NMeL]VP[NMeF]L[Sar][NMeI][NMeA]D-Piperidide; lactam N-12); 67

Now let's try a different one.
# query: microsomal CLint at 1 uM of entry CC[C@H](C)[C@H]1C(=O)N(C)[C@@H](CC(C)C)C(=O)N[C@H](C(=O)N2CCCCC2)CC(=O)N[C@H](C)C(=O)N[C@@H]([C@@H](C)O)C(=O)N(C)[C@@H](C)C(=O)N(C)[C@@H](Cc2ccccc2)C(=O)N2CCC[C@H]2C(=O)N[C@@H](C)C(=O)N(C)[C@@H](C(C)C)C(=O)N[C@@H](Cc2ccccc2)C(=O)N1C [DP-65] ([dA]T[NMeA][NMeF]PA[NMeV]F[NMeI][NMeL]D-Piperidide; lactam N-11)
97
